system: CAL-120, human breast adenocarcinoma cells; experiment: Proliferation assay CAL-120 (crystal violet, 4 days); type: cell-based; conditions: Homo sapiens, CAL-120, 96 h, CAL-120 cells, median, read-out: Prolif-CAL-120, IC50-[mol/l] (median)
pIC50: −log10 of the molar value.
QUANTITY_KIND: pIC50

Look over these answered cases.
COMPOUND | QUANTITY_KIND | ENDPOINT_VALUE
CN1CC[C@@H]2CN(c3nc(NCc4nc5ccccc5[nH]4)n4ncc(Br)c4n3)C[C@@H]21 [Example 217] | pIC50 | 7.35
Fc1cccc2[nH]c(CNc3nc(N4CCOCC4)nc4c(Br)cnn34)nc12 [Example 97] | pIC50 | 8.29
Fc1ccc(-c2nnc(CNc3nc(N4CCOCC4)nc4c(Br)cnn34)[nH]2)cc1 [Example 29] | pIC50 | 6.77
COc1ccc2[nH]c(CNc3nc(N4C[C@@H](C)N[C@@H](C)C4)nc4c(Br)cnn34)nc2c1 [Example 205] | pIC50 | 8.76
N[C@@H]1CCN(c2nc(NCc3nc4ccccc4[nH]3)n3ncc(Br)c3n2)C1 [Example 250] | pIC50 | 8.46
Cc1ccc2[nH]c(CNc3nc(N4CCOCC4)nc4c(Br)cnn34)nc2c1 [Example 157] | pIC50 | 8.75

I: Cc1cccc(-c2nnc(CNc3nc(N4CCOCC4)nc4c(Br)cnn34)[nH]2)c1 [Example 40]
II: CC1CN(C)CCN1c1nc(NCc2nc3ccccc3[nH]2)n2ncc(Br)c2n1 (centres unmarked) [Example 156]
stdin: Return label of the item with the larger pIC50. Candidates: I , II . Return value: the label identifying the chosen record.
stdout: II
(II: 8.26, I: 7.64)

----------
test system: CAL-120, human breast adenocarcinoma cells; assay: Proliferation assay CAL-120 (crystal violet, 4 days); assay type: cell-based; conditions: Homo sapiens, CAL-120, 96 h, CAL-120 cells, median, read-out: Prolif-CAL-120, IC50-[mol/l] (median)
QUANTITY_KIND: IC50 (µM)

MOLECULE | IC50, µM
CN(CC(C)(C)O)c1nc(NCc2nc3c(F)c(Cl)ccc3[nH]2)n2ncc(Br)c2n1 [Example 374] | 0.0028
COc1cccc2[nH]c(CNc3nc(N4C[C@@H](C)N[C@@H](C)C4)nc4c(C5CC5)cnn34)nc12 [Example 212] | 0.00229
Fc1ccc2[nH]c(CNc3nc(N4C[C@H]5CC[C@@H](C4)N5)nc4c(C5CC5)cnn34)nc2c1F [Example 294] | 0.00142
Cc1cnn2c(NCc3nc4ccccc4[nH]3)nc(N3CC4CCC(C3)N4)nc12 [Example 401] | 0.0435
Fc1cc2nc(CNc3nc(N4CCOCC4)nc4c(C(F)(F)F)cnn34)[nH]c2cc1F [Example 333] | 0.0031
Brc1cnn2c(NCc3nc4ccccc4[nH]3)nc(N3C[C@@H]4C[C@H]3CO4)nc12 [Example 103] | 0.0465

1: Fc1cc(F)cc(-c2nnc(CNc3nc(N4CCOCC4)nc4c(C(F)(F)F)cnn34)[nH]2)c1 [Example 386]
2: CN1CCN(c2nc(NCc3nnc(-c4ccccc4)[nH]3)n3ncc(Br)c3n2)CC1=O [Example 121]
3: Clc1cc2nc(CNc3nc(N4CCOCC4)nc4c(-c5cscn5)cnn34)[nH]c2cc1Cl [Example 424]
4: Cc1cc2nc(CNc3nc(N(C)CC(C)(C)O)nc4c(Br)cnn34)[nH]c2cc1C [Example 343]
5: Brc1cnn2c(NCc3nc4ccccc4[nH]3)nc(N3CCOCC3C3CC3)nc12 (stereo not shown) [Example 117]
stdin: Descending sort on IC50 required. Give the labels in the order specified.
stdout: 2, 3, 5, 1, 4

1: COc1ccc2[nH]c(CNc3nc(N4CCOCC4)nc4c(Br)cnn34)nc2c1 [Example 160]
2: Brc1cnn2c(NCc3nc4ccccc4[nH]3)nc(N3CC4CCNC4C3)nc12 (stereo not shown) [Example 271]
stdin: Given the two records 1 and 2 , choose the one whose IC50 value is lower. State the label of the item chosen.
stdout: 1

a: FC(F)(F)Oc1cccc2[nH]c(CNc3nc(N4CCOCC4)nc4c(Br)cnn34)nc12 [Example 375]
b: CN1CCN(c2nc(NCc3nc4c(F)cccc4[nH]3)n3ncc(Br)c3n2)CC1 [Example 126]
stdin: Of a and b , whose reported IC50 is the larger number? Give the label of your selection.
stdout: a

----------
biological target: CDK12/CycK (Homo sapiens); experiment: CDK12/CycK high ATP kinase assay (TR-FRET, 2 mM ATP); conditions: 2 mM ATP (high ATP); median; read-out: CDK12/CyclinK, 2 mM ATP (high ATP), IC50-[mol/l] (median)
Sequence (Q9NYV4 with tags, fused parts or gaps): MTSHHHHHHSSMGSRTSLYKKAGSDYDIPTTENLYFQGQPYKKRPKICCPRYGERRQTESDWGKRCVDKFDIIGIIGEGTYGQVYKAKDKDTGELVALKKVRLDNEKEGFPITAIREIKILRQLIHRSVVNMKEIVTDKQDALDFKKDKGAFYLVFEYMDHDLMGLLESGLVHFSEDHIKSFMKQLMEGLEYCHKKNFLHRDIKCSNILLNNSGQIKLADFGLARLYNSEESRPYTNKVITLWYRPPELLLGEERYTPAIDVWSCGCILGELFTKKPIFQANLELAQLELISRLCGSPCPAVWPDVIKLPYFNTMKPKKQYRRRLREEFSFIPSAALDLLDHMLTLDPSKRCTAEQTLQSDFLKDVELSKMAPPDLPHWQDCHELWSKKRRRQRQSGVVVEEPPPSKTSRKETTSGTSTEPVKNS
Sequence (O75909 1-300 partner limits assumed): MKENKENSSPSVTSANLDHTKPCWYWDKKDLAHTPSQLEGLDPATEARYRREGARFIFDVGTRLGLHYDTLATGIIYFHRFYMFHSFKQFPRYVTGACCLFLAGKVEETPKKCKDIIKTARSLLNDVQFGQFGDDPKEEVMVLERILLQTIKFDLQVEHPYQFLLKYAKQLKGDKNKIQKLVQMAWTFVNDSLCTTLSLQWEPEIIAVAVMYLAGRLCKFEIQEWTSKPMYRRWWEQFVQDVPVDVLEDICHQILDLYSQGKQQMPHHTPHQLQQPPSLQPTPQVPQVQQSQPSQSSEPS
pIC50: −log10 of the molar value.
QUANTITY_KIND: pIC50

In the examples that follow, each entry is paired with its recorded pIC50.
MOLECULE | TARGET_ENTITY | QUANTITY_KIND | ENDPOINT_VALUE
Brc1cnn2c(NCc3nc4ccccc4[nH]3)nc(N3CC4CCC3CO4)nc12 (centres unmarked) [Example 352] | CDK12/CycK (Homo sapiens) | pIC50 | 5.28
OC[C@H]1CCCCN1c1nc(NCc2nnc(-c3ccccc3)[nH]2)n2ncc(Br)c2n1 [Example 71] | CDK12/CycK (Homo sapiens) | pIC50 | 5.36
Cc1cccc(-c2nnc(CNc3nc(N4CCOCC4)nc4c(Br)cnn34)[nH]2)c1 [Example 40] | CDK12/CycK (Homo sapiens) | pIC50 | 5.61
FC(F)(F)Oc1ccccc1-c1cnc(CNc2nc(N3CCOCC3)nc3c(Br)cnn23)[nH]1 [Example 89] | CDK12/CycK (Homo sapiens) | pIC50 | 4.97
OCC1COCCN1c1nc(NCc2nc3ccccc3[nH]2)n2ncc(Br)c2n1 (centres unmarked) [Example 67] | CDK12/CycK (Homo sapiens) | pIC50 | 5.56

1: Brc1cnn2c(NCc3nc4ccccc4[nH]3)nc(N3C[C@@H]4C[C@H]3CN4)nc12 [Example 270]
2: Cc1ccc2[nH]c(CNc3nc(N4CCOCC4)nc4c(C5CC5)cnn34)nc2c1 [Example 193]
3: CN(CC(C)(C)O)c1nc(NCc2nc3c(F)c(Cl)ccc3[nH]2)n2ncc(Br)c2n1 [Example 374]
4: Fc1ccc2[nH]c(CNc3nc(N4CCOCC4)nc4c(C5CC5)cnn34)nc2c1F [Example 172]
5: Fc1cccc(-c2nnc(CNc3nc(N4CCOCC4)nc4c(C(F)(F)F)cnn34)[nH]2)c1 [Example 385]
stdin: Output the entries ranked by pIC50 from maximum down to minimum. Rank the items, then write their labels in that order.
stdout: 3, 5, 4, 2, 1

a: CC1CN(C)CCN1c1nc(NCc2nc3ccccc3[nH]2)n2ncc(Br)c2n1 (single isomer, unassigned; enantiomer 1) [Example 260]
b: Clc1cc2nc(CNc3nc(N4CCOCC4)nc4c(-c5cncs5)cnn34)[nH]c2cc1Cl [Example 443]
stdin: Hey, which is lower on measured pIC50, a or b ? Reply briefly: the label of your chosen item.
stdout: a

----------
Target: CDK12 (nuclear staining in CAL-120 cells) (Homo sapiens, UniProt Q9NYV4)
Construct: endogenous in cells; host or cells: CAL-120 human breast cancer cells (DSMZ ACC 459)
Sequence (Q9NYV4 whole entry): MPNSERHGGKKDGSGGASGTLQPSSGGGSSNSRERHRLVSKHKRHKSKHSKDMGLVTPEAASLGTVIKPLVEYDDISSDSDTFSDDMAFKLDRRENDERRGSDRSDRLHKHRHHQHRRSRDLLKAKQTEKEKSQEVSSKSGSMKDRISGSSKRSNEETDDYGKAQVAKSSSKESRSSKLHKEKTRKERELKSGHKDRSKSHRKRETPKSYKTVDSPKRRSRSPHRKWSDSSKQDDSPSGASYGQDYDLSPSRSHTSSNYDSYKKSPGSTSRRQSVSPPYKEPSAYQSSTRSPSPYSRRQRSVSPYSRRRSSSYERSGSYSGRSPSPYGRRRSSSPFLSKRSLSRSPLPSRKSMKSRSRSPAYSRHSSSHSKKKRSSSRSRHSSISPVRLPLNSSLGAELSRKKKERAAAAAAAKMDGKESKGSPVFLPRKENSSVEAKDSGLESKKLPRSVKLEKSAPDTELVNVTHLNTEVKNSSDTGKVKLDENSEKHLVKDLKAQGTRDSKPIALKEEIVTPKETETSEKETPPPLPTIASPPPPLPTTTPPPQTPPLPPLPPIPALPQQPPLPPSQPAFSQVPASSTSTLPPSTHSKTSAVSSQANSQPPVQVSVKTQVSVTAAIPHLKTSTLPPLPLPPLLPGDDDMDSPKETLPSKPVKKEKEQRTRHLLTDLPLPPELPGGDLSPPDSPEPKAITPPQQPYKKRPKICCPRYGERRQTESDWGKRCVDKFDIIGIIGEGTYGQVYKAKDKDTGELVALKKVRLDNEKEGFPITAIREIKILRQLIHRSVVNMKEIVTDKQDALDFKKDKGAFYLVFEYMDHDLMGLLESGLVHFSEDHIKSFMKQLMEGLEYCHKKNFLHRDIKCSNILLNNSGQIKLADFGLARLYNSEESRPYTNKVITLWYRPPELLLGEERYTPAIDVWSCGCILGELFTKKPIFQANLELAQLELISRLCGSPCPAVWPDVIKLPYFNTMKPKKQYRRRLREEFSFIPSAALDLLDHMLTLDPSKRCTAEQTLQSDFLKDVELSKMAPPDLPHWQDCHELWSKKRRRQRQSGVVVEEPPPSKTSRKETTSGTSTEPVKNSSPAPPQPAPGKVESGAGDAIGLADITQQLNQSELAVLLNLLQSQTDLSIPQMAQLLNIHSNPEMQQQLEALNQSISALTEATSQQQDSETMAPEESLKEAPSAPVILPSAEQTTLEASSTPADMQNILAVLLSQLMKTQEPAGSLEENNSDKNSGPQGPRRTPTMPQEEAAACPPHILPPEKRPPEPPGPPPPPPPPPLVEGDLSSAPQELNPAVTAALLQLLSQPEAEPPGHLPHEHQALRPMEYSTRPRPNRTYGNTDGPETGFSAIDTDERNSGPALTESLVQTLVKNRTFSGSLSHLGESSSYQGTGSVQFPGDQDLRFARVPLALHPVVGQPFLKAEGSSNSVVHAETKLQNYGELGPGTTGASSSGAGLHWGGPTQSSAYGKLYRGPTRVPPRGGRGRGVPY
Sequence (O75909 whole entry partner): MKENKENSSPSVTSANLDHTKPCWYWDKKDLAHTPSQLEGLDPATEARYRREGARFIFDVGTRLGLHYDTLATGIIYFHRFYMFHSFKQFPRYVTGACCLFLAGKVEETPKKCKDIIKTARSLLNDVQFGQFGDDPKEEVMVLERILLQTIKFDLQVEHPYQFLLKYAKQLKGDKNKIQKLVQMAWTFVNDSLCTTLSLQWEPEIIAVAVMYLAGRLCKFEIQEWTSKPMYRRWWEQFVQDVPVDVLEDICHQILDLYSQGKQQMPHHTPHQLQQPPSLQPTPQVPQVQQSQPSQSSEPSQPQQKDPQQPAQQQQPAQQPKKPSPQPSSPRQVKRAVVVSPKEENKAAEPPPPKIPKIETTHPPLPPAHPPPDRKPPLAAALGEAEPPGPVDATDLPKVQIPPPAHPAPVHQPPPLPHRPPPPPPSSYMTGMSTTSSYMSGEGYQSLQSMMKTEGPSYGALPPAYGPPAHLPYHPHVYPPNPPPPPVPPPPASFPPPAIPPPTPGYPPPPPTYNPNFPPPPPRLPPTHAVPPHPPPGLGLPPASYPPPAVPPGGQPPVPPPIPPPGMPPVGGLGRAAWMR
Test: CDK12 nuclear protein level: immunofluorescence/high content analysis (CAL-120)
Format: cell-based
Settings: CAL-120 cells, 24 h, immunofluorescence; 50% reduction of nuclear CDK12 staining intensity; median; read-out: CDK12 degradation IF, DC50- [mol/l] (median)
Protocol: In the context of the present invention, the term “DC50 CDK12” refers to the DC50 values obtained according to the assay described in this section (7) herein below, i.e. the DC50 values for the degradation of CDK12. Plates are then incubated for 24 h at 37° C. in an humidified incubator and fixed with 4% PFA for 10 min. […] Nuclear and cytoplasmic intensity as well as the nuclear/cytoplasmic intensity ratio is determined by automated image analysis using custom generated scripts (MetaXpress). […]
QUANTITY_KIND: DC50 (nM)

COMPOUND | ENDPOINT_VALUE
[O-][S+]1CCN(c2nc(NCc3nc4ccccc4[nH]3)n3ncc(Br)c3n2)CC1 [Example 144] | 6.32
Brc1cnn2c(NCc3nc4ccccc4[nH]3)nc(N3CCCCC3)nc12 [Example 46] | 18
Cc1cnn2c(NCc3nc4c(F)c(F)ccc4[nH]3)nc(N3CCN(C)CC3)nc12 [Example 394] | 5.65
FC(F)n1cc(-c2cnn3c(NCc4nc5cc(Cl)c(Cl)cc5[nH]4)nc(N4CCOCC4)nc23)cn1 [Example 423] | 17.8

A: FC(F)(F)c1cccc(-c2nnc(CNc3nc(N4CCOCC4)nc4c(Br)cnn34)[nH]2)c1 [Example 52]
B: Brc1cnn2c(NCc3nnc(-c4ccccc4)[nH]3)nc(N3CCCC3)nc12 [Example 64]
C: CN(CCN1CCCC1)c1nc(NCc2nc3ccccc3[nH]2)n2ncc(Br)c2n1 [Example 239]
D: Fc1ccc2[nH]c(CNc3nc(N4C[C@@H]5C[C@H]4CO5)nc4c(C5CC5)cnn34)nc2c1 [Example 185]
stdin: Arrange the 4 entries by DC50 so the values rise. # output: labels, in the requested order
stdout: D, B, A, C
